Exercise: state measured MIC Enterococcus faecalis (ATCC 29212) for each of the molecules provided.
- System: Enterococcus sp.
- protocol text: In vitro antibacterial evaluation: minimum inhibitory concentration (MIC), broth dilution method
- Type: cell-based
- protocol conditions: broth dilution, inoculum 5×10^5 CFU/mL, 18 hours at 35° C.

Recorded MIC Enterococcus faecalis (ATCC 29212), per entry:
molecule	study system	measured property	val
CC(c1ccccc1)C1NC(=O)CNC(=O)C(CO)NC(=O)C(C(O)C2CNC(=N)N2C2OC(CO)C(O)C(O)C2O)NC(=O)C(C(O)C2CNC(=N)N2)NC(=O)C(Cc2ccc(OC3OC(CO)C(OC4OC5COC(c6ccc(-c7cccs7)cc6)OC5C(O)C4O)C(O)C3O)cc2)NC1=O (stereo not shown)	Enterococcus sp.	MIC Enterococcus faecalis (ATCC 29212)	8 µg/mL
N=C1NCC(C(O)C2NC(=O)C(Cc3ccc(OC4OC(CO)C(OC5OC6COC(Cc7ccccc7)OC6C(O)C5O)C(O)C4O)cc3)NC(=O)C(CC3CCCCC3)NC(=O)CNC(=O)C(CO)NC(=O)C(C(O)C3CNC(=N)N3C3OC(CO)C(O)C(O)C3O)NC2=O)N1 (stereo not shown)	Enterococcus sp.	MIC Enterococcus faecalis (ATCC 29212)	4 µg/mL
CC(c1ccccc1)C1NC(=O)CNC(=O)C(CO)NC(=O)C(C(O)C2CNC(=N)N2C2OC(CO)C(O)C(O)C2O)NC(=O)C(C(O)C2CNC(=N)N2)NC(=O)C(Cc2ccc(OC3OC(CO)C(OC4OC5COC6(CCCCCCCCCCC6)OC5C(O)C4O)C(O)C3O)cc2)NC1=O (stereo not shown)	Enterococcus sp.	MIC Enterococcus faecalis (ATCC 29212)	4 µg/mL

I have 4 molecules here; please give me MIC Enterococcus faecalis (ATCC 29212) for each one.
1. CC(c1ccccc1)C1NC(=O)CNC(=O)C(CO)NC(=O)C(C(O)C2CN(c3nc4ccccc4o3)C(=N)N2C2OC(CO)C(O)C(O)C2O)NC(=O)C(C(O)C2CNC(=Nc3nc4ccccc4o3)N2)NC(=O)C(Cc2ccc(OC3OC(CO)C(OC4OC5COC6(OC5C(O)C4O)C4CC5CC(C4)CC6C5)C(O)C3O)cc2)NC1=O (stereo not shown)
2. CC(c1ccccc1)C1NC(=O)CNC(=O)C(CO)NC(=O)C(C(O)C2CN(Cc3ccc(C(F)(F)F)cc3)C(=N)N2C2OC(CO)C(O)C(O)C2O)NC(=O)C(C(O)C2CNC(=N)N2)NC(=O)C(Cc2ccc(OC3OC(CO)C(OC4OC5COC6(OC5C(O)C4O)C4CC5CC(C4)CC6C5)C(O)C3O)cc2)NC1=O (stereo not shown)
3. CC(c1ccccc1)C1NC(=O)CNC(=O)C(CO)NC(=O)C(C(O)C2CNC(=N)N2C2OC(CO)C(O)C(O)C2O)NC(=O)C(C(O)C2CNC(=N)N2)NC(=O)C(Cc2ccc(OC3OC(CO)C(OC4OC5COC6(CC7CCC6(C)C7(C)C)OC5C(O)C4O)C(O)C3O)cc2)NC1=O (stereo not shown)
4. CC(C1CCCCC1)C1NC(=O)CNC(=O)C(CO)NC(=O)C(C(O)C2CNC(=N)N2C2OC(CO)C(O)C(O)C2O)NC(=O)C(C(O)C2CNC(=N)N2)NC(=O)C(Cc2ccc(OC3OC(CO)C(OC4OC5COC6(OC5C(O)C4O)C4CC5CC(C4)CC6C5)C(O)C3O)cc2)NC1=O (stereo not shown)

["64 µg/mL", "32 µg/mL", "2 µg/mL", "2 µg/mL"]

I have 5 molecules here; please give me MIC Enterococcus faecalis (ATCC 29212) for each one.
1. CC(c1ccccc1)C1NC(=O)CNC(=O)C(CO)NC(=O)C(C(O)C2CNC(=N)N2C2OC(CO)C(O)C(O)C2O)NC(=O)C(C(O)C2CNC(=N)N2)NC(=O)C(Cc2ccc(OC3OC(CO)C(OC4OC5COC(c6ccccc6)OC5C(O)C4O)C(O)C3O)c(I)c2)NC1=O (stereo not shown)
2. N=C1NCC(C(O)C2NC(=O)C(Cc3ccc(OC4OC(CO)C(OC5OC6COC(c7ccccc7)OC6C(O)C5O)C(O)C4O)cc3)NC(=O)C(CC3CCCCC3)NC(=O)CNC(=O)C(CO)NC(=O)C(C(O)C3CNC(=N)N3C3OC(CO)C(O)C(O)C3O)NC2=O)N1 (stereo not shown)
3. CC(c1ccccc1)C1NC(=O)CNC(=O)C(CO)NC(=O)C(C(O)C2CNC(=N)N2C2OC(CO)C(O)C(O)C2O)NC(=O)C(C(O)C2CNC(=N)N2)NC(=O)C(Cc2ccc(OC3OC(CO)C(OC4OC5COC(c6ccc(-c7ccsc7)cc6)OC5C(O)C4O)C(O)C3O)cc2)NC1=O (stereo not shown)
4. CC(c1ccccc1)C1NC(=O)CNC(=O)C(CO)NC(=O)C(C(O)C2CNC(=N)N2C2OC(CO)C(O)C(O)C2O)NC(=O)C(C(O)C2CNC(=N)N2)NC(=O)C(Cc2ccc(OC3OC(CO)C(OC4OC(COCc5ccc(OCc6ccccc6)cc5)C(O)C(O)C4O)C(O)C3O)cc2)NC1=O (stereo not shown)
5. Cc1ccc(Oc2cccc(C3OCC4OC(OC5C(CO)OC(Oc6ccc(CC7NC(=O)C(C(C)c8ccccc8)NC(=O)CNC(=O)C(CO)NC(=O)C(C(O)C8CNC(=N)N8C8OC(CO)C(O)C(O)C8O)NC(=O)C(C(O)C8CNC(=N)N8)NC7=O)cc6I)C(O)C5O)C(O)C(O)C4O3)c2)cc1 (stereo not shown)

1: >64 µg/mL; 2: 4 µg/mL; 3: 8 µg/mL; 4: 4 µg/mL; 5: >64 µg/mL
